Values compiled from patent US10322131B2.

Recorded IC50, one value per entry.
biological target: UniProtKB Q07820; experiment: Inhibition of Mcl-1 by the fluorescence polarisation technique; assay type: binding
Sequence (Q07820 whole entry): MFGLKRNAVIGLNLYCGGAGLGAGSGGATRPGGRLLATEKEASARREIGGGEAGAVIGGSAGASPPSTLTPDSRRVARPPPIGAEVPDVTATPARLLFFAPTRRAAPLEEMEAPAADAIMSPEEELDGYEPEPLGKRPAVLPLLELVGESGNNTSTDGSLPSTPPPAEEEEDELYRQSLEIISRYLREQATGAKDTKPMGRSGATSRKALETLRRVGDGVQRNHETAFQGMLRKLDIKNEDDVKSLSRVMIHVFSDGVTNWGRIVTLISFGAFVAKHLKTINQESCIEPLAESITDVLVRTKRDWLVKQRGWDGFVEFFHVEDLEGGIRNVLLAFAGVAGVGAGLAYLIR

>  <molecule>
Cc1c(-c2c(-c3ccc(F)cc3)sc3ncnc(OC(Cc4ccccc4OCc4ccnc(-c5cccc(OP(=O)(O)O)c5)n4)C(=O)O)c23)ccc(OCCN2CCN(C)CC2)c1Cl (centres unmarked) [Example 28]

>  <IC50 (nM)>
4.15

$$$$
>  <molecule>
Cc1c(-c2c(-c3ccc(F)cc3)sc3ncnc(OC(Cc4ccccc4OCc4ccnc(-c5ccc(OP(=O)(O)O)cc5)n4)C(=O)O)c23)ccc(OCCN2CCN(C)CC2)c1Cl (centres unmarked) [Example 29]

>  <IC50 (nM)>
4.6

$$$$

----------
biological target: UniProt Q07820; test: Inhibition of Mcl-1 by the fluorescence polarisation technique; format: binding; conditions: fluorescence polarisation test; Fluorescein labelled ligand 1 nM, Mcl-1 protein 5 nM, ~2 hours at r.t.; read-out: IC50 (M) Mcl-1 FP
Counter-ions that a name gives are not always drawn.
Recorded IC50, one value per entry.
quantity name: IC50 (M)

>  <compound>
Cc1c(-c2c(-c3ccc(F)cc3)sc3ncnc(OC(Cc4ccccc4OCc4ccnc(-c5ccc(CO)cc5)n4)C(=O)O)c23)ccc(OCCN2CCN(C)CC2)c1Cl (stereo not drawn)

>  <quantity name>
IC50

>  <measure unit>
M

>  <experimental result>
4.9e-09

$$$$
>  <compound>
Cc1c(-c2c(-c3ccc(F)cc3)sc3ncnc(OC(Cc4ccccc4OCc4ccnc(-c5cccc(OCCN6CCOCC6)c5)n4)C(=O)O)c23)ccc(OCCN2CCN(C)CC2)c1Cl (stereo not drawn)

>  <quantity name>
IC50

>  <measure unit>
M

>  <experimental result>
4.15e-09

$$$$
>  <compound>
Cc1c(-c2c(-c3ccc(F)cc3)sc3ncnc(OC(Cc4ccccc4OCc4ccnc(-c5ccc(OCCN6CCOCC6)cc5)n4)C(=O)O)c23)ccc(OCCN2CCN(C)CC2)c1Cl (stereo not drawn)

>  <quantity name>
IC50

>  <measure unit>
M

>  <experimental result>
4.75e-09

$$$$
>  <compound>
Cc1c(-c2c(-c3ccc(F)cc3)sc3ncnc(OC(Cc4ccccc4OCc4ccnc(-c5cccc(OCC6COC(C)(C)O6)c5)n4)C(=O)O)c23)ccc(OCCN2CCN(C)CC2)c1Cl (stereo not drawn)

>  <quantity name>
IC50

>  <measure unit>
M

>  <experimental result>
5.15e-09

$$$$
>  <compound>
Cc1c(-c2c(-c3ccc(F)cc3)sc3ncnc(OC(Cc4ccccc4OCc4ccnc(-c5ccccc5COCC5COC(C)(C)O5)n4)C(=O)O)c23)ccc(OCCN2CCN(C)CC2)c1Cl (stereo not drawn)

>  <quantity name>
IC50

>  <measure unit>
M

>  <experimental result>
4.05e-09

$$$$
>  <compound>
Cc1c(-c2c(-c3ccc(F)cc3)sc3ncnc(OC(Cc4ccccc4OCc4ccnc(-c5cncc(CO)c5)n4)C(=O)O)c23)ccc(OCCN2CCN(C)CC2)c1Cl (stereo not drawn)

>  <quantity name>
IC50

>  <measure unit>
M

>  <experimental result>
7.6e-09

$$$$
>  <compound>
Cc1c(-c2c(-c3ccc(F)cc3)sc3ncnc(OC(Cc4ccccc4OCc4ccnc(-c5cccc(COC(=O)NCCN(C)C)c5)n4)C(=O)O)c23)ccc(OCCN2CCN(C)CC2)c1Cl (stereo not drawn)

>  <quantity name>
IC50

>  <measure unit>
M

>  <experimental result>
4.55e-09

$$$$
>  <compound>
Cc1c(-c2c(-c3ccc(F)cc3)sc3ncnc(OC(Cc4ccccc4OCc4ccnc(-c5cnc(CO)nc5)n4)C(=O)O)c23)ccc(OCCN2CCN(C)CC2)c1Cl (stereo not drawn)

>  <quantity name>
IC50

>  <measure unit>
M

>  <experimental result>
7.7e-09

$$$$
>  <compound>
Cc1c(-c2c(-c3ccc(F)cc3)sc3ncnc(O[C@H](Cc4ccccc4OCc4ccnc(-c5ccccc5OC[C@@H](O)[C@@H](O)[C@H](O)[C@H](O)C(=O)O)n4)C(=O)O)c23)ccc(OCCN2CCN(C)CC2)c1Cl

>  <quantity name>
IC50

>  <measure unit>
M

>  <experimental result>
4.85e-09

$$$$
>  <compound>
Cc1c(-c2c(-c3ccc(F)cc3)sc3ncnc(OC(Cc4ccccc4OCc4ccnc(-c5ccccc5COCC(O)CO)n4)C(=O)O)c23)ccc(OCCN2CCN(C)CC2)c1Cl (stereo not drawn)

>  <quantity name>
IC50

>  <measure unit>
M

>  <experimental result>
2.2e-09

$$$$
>  <compound>
Cc1c(-c2c(-c3ccc(F)cc3)sc3ncnc(OC(Cc4ccccc4OCc4ccnc(-c5cccc(O)c5)n4)C(=O)O)c23)ccc(OCCN2CCN(C)CC2)c1Cl (stereo not drawn)

>  <quantity name>
IC50

>  <measure unit>
M

>  <experimental result>
8.4e-09

$$$$
>  <compound>
COCc1ccccc1-c1nccc(COc2ccccc2C[C@@H](Oc2ncnc3sc(-c4ccc(F)cc4)c(-c4ccc(OCCN5CCN(C)CC5)c(Cl)c4C)c23)C(=O)O)n1

>  <quantity name>
IC50

>  <measure unit>
M

>  <experimental result>
7.35e-09

$$$$
>  <compound>
COCC(COC)Oc1cccc(-c2nccc(COc3ccccc3CC(Oc3ncnc4sc(-c5ccc(F)cc5)c(-c5ccc(OCCN6CCN(C)CC6)c(Cl)c5C)c34)C(=O)O)n2)c1 (stereo not drawn)

>  <quantity name>
IC50

>  <measure unit>
M

>  <experimental result>
5.1e-09

$$$$
>  <compound>
Cc1c(-c2c(-c3ccc(F)cc3)sc3ncnc(O[C@H](Cc4ccccc4OCc4ccnc(-c5ccc(OCCN(C)C)cc5)n4)C(=O)O)c23)ccc(OCCN2CCN(C)CC2)c1Cl

>  <quantity name>
IC50

>  <measure unit>
M

>  <experimental result>
7.1e-09

$$$$
>  <compound>
Cc1c(-c2c(-c3ccc(F)cc3)sc3ncnc(OC(Cc4ccccc4OCc4ccnc(-c5ccc(COC6(C)OC7OC(CO)C(O)C(O)C7O6)cc5)n4)C(=O)O)c23)ccc(OCCN2CCN(C)CC2)c1Cl (stereo not drawn)

>  <quantity name>
IC50

>  <measure unit>
M

>  <experimental result>
5.5e-09

$$$$
>  <compound>
Cc1c(-c2c(-c3ccc(F)cc3)sc3ncnc(OC(Cc4ccccc4OCc4ccnc(-c5ccc(OP(=O)(O)O)cc5)n4)C(=O)O)c23)ccc(OCCN2CCN(C)CC2)c1Cl (stereo not drawn) [Example 57, phosphate disodium salt]

>  <quantity name>
IC50

>  <measure unit>
M

>  <experimental result>
4.6e-09

$$$$
>  <compound>
Cc1c(-c2c(-c3ccc(F)cc3)sc3ncnc(OC(Cc4ccccc4OCc4ccnc(-c5cccc(COC(=O)NCCN6CCCC6)c5)n4)C(=O)O)c23)ccc(OCCN2CCN(C)CC2)c1Cl (stereo not drawn)

>  <quantity name>
IC50

>  <measure unit>
M

>  <experimental result>
3.7e-09

$$$$
>  <compound>
Cc1c(-c2c(-c3ccc(F)cc3)sc3ncnc(OC(Cc4ccccc4OCc4ccnc(-c5cccc(COC(=O)N6CCC(N7CCCCC7)CC6)c5)n4)C(=O)O)c23)ccc(OCCN2CCN(C)CC2)c1Cl (stereo not drawn)

>  <quantity name>
IC50

>  <measure unit>
M

>  <experimental result>
6.3e-09

$$$$
